// provenance: patent US20260166162A1

Parameter Sterilization rate (%): see the listing below.
Tested on: SARS-CoV-2 pseudovirus
Format: cell-based, SARS-CoV-2 pseudovirus B.1.526.2
Write down the numeric answer in % and omit the unit.

CCC=CCC=CCC=CCC=CCC=CCC=CCCC(=O)NCCCCC(N)C(=O)O (centres unmarked) = 99
CCCCCCCC(=O)OCC(N)C(=O)O (centres unmarked) = 99
CCCCCCCC/C=C\CCCCCCCC(=O)OC(C)C(N)C(=O)O (centres unmarked) = 99
CCCCCCCCCN(C)C[C@H](O)[C@@H](O)[C@H](O)[C@H](O)CO [N-nonyl-N-methylglucamine] = 99
CCC=CCC=CCC=CCC=CCC=CCC=CCCC(=O)OCC(N)C(=O)O (centres unmarked) = 99
CCCCCCCC(=O)OC(C)C(N)C(=O)O (centres unmarked) = 99
CCCCCCCCN(C)C[C@H](O)[C@@H](O)[C@H](O)[C@H](O)CO [N-octyl-N-methylglucamine] = 99

We now examine a further compound.
Problem: # query: Sterilization rate (%) of entry CCC=CCC=CCC=CCC=CCC=CCC=CCCC(=O)OC(C)C(N)C(=O)O (centres unmarked)
Result: 99

====

Fluorescence recovery rate %: recorded values
Tested on: Hela cells
Method description: Cell membrane fluidity (Laurdan fluorescence recovery) in Hela cells
Assay type: cell-based
Applied conditions: 10 nM, 40 s
Please reply with the bare figure in % and do not write the unit itself.

Below, 2 compounds whose answers are already recorded.
CCC=CCC=CCC=CCC=CCC=CCCCC(=O)NC(CO)C(=O)O (stereo not shown) = 65.11
CCCCCCCCCCCCCCCCCC(=O)NCCCCC(N)C(=O)O (stereo not shown) = 64.81

Problem: Provide the documented Fluorescence recovery rate % with Hela cells as the system for CCC=CCC=CCC=CCC=CCC=CCC=CCCC(=O)OC(C)C(N)C(=O)O (stereo not shown)
Result: 66.04

====

In this section we review reported TNF-α values for a set of compounds.
Tested on: TNF-α
Method description: Skin photoaging (UVB) in BALB/c nude mice, serum TNF-α (Example II-54, Table II-32)
Assay type: in vivo, mouse
Applied conditions: 30 μM smeared, UVB-irradiated BALB/c nude mice, 40 days
Write down the numeric answer in pg/mL and omit the unit.

Worked examples follow.
CCCCCCC(O)CC=CCCCCCCCC(=O)NCCCCC(N)C(=O)O (centres unmarked) [Lys-ricinoleic acid] = 60
CCC=CCC=CCC=CCC=CCC=CCCCC(=O)NC(CO)C(=O)O (centres unmarked) [Ser-EPA, Serine-EPA] = 54
CCCCCC=CCC=CCCCCCCCC(=O)OCC(N)C(=O)O (centres unmarked) [Ser-linoleic acid] = 48

Problem: # get_value(readout='TNF-α', item= CCC=CCC=CCC=CCCCCCCCC(=O)OCC(N)C(=O)O (centres unmarked) [Ser-linolenic acid] )
Result: 51

Problem: // query TNF-α value for entry CCC=CCC=CCC=CCC=CCC=CCC=CCCC(=O)OC(C)C(N)C(=O)O (centres unmarked)
Result: 53

====

System: 293T cells
Method description: Cellular phagocytosis of DiD-loaded lipid vesicles (nano-drugs) by 293T cells (Example II-51, Table II-29)
Type: cell-based
Applied conditions: 50 nM; 293T cells pretreated 4 h, DiD lipid vesicles 2 h; n=3; untreated control 226.46 ± 1.26
Label class 1 when Fluorescence intensity is at or above 50; otherwise label class 0.

Please review the entries below; each comes with its answer.
CCCCCCCC(=O)O [n-octanoic acid] = class 1
CCCCCCCC/C=C\CCCCCCCC(=O)O.OCCO [Ethylene glycol-oleic acid] = class 1
CCCCCCCC/C=C\CCCCCCCC(=O)OCCOCC(OCCO)C1OCC(OCCO)C1OCCO (stereo not shown) [Tween-80] = class 0
CCCCCCCC(=O)OCC(N)C(=O)O (stereo not shown) = class 1
CCCCCCCCCCCCCCCCCCCCCCCC(=O)OC(C)C(N)C(=O)O (stereo not shown) [Threonine-C24] = class 0
CCCCCCCCC(=O)O [Nonanoic acid] = class 1
Cc1c(C)c2c(c(C)c1O)CCC(C)(CCCC(C)CCCC(C)CCCC(C)C)O2 (stereo not shown) [Vitamin-E, Vitamin E] = class 0
CCCCCC(=O)O [Hexanoic acid] = class 1
CCCCCCCCCC(=O)O [N-decanoic acid] = class 1
CC/C=C\C/C=C\C/C=C\C/C=C\C/C=C\C/C=C\CCC(=O)OCC(O)C1OC(=O)C(O)=C1O (stereo not shown) [Ascorbic Acid-DHA] = class 1

Problem: Assess whether reported Fluorescence intensity for CCCCCCCCCCCC(=O)NCCCCC(N)C(=O)O (stereo not shown) [Lys-C12] sits at 50 or higher.
Result: class 0

Problem: Hello, I need to know if O=C(O)CCCCCCCCCC(=O)OCC(O)C1OC(=O)C(O)=C1O (stereo not shown) [VC-undecanedioic acid] has measured Fluorescence intensity not below 50. Thanks!
Result: class 1

Problem: Could you tell me if the measured Fluorescence intensity of CCCCCC=CCC=CCCCCCCCC(=O)OC(C)C(N)C(=O)O (stereo not shown) [Threonine-LA] reaches 50 or more?
Result: class 0

Problem: Assess whether reported Fluorescence intensity for CCCCCCCCCCCCCCCC(=O)OCC1OC(O)C(O)C(O)C1O (stereo not shown) [Glucose-C16] sits at 50 or higher.
Result: class 1

Problem: Reported Fluorescence intensity at or above 50? C=CCCCCCCCCC(=O)[O-].[Na+] [Sodium undecylenate]
Result: class 1

Problem: Confirm if Fluorescence intensity reported for the compound CCCCCC/C=C\CCCCCCCC(=O)OC(C)C(N)C(=O)O (stereo not drawn) [Threonine-cis-9-hexadecanoic acid] is 50 or above.
Result: class 1
